Assay: Unbound brain-to-plasma concentration ratio in Swiss outbred mouse at 4.4 mg/kg, iv measured after 2 hrs
Format: ADME, organism-based
Conditions: read-out: K(p,uu,brain)
endpoint.label: Kp uu at 2 h

Incoming: Determine from records and report Kp uu at 2 h for "CCCCNc1ncc(C(=O)NC2CCN(CCCF)CC2)c(N[C@H]2CC[C@H](O)CC2)n1"
Outgoing: > 1

----------
Molecular target: Tyrosine-protein kinase Mer (Mus musculus, UniProt Q60805)
Sequence (Q60805 whole entry): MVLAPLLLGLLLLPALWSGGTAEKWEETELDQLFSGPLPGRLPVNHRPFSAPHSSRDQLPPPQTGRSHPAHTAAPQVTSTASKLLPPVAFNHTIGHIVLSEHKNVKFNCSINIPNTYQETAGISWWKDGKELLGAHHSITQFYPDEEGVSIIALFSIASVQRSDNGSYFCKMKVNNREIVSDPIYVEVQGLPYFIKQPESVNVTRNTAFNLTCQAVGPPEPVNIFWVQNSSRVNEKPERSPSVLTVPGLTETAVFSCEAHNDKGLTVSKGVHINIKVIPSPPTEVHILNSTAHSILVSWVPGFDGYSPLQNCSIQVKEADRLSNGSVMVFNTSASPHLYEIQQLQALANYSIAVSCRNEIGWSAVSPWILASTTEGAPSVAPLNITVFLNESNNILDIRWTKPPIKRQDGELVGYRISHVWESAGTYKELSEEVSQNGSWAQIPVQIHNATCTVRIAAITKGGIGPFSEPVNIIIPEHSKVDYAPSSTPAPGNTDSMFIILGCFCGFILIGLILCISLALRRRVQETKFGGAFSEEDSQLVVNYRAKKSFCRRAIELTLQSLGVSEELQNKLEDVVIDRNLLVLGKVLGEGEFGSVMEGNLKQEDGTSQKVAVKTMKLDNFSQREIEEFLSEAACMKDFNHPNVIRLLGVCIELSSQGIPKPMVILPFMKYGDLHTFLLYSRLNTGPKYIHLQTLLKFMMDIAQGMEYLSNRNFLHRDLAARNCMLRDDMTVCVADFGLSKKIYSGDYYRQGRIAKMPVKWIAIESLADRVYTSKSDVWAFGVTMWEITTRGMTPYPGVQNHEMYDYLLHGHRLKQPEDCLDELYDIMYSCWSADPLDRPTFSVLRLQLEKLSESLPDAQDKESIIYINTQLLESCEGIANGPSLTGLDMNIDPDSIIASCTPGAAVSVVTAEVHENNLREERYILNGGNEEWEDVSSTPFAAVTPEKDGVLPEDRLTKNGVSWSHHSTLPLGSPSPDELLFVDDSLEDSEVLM
Experiment: Binding affinity to MERTK in cuprizone-challenged C57BL/6 mouse whole brain assessed as dissociation constant at 18.1 nM by autoradiography
Type: tissue-based
endpoint.label: pKd
pKd is defined as minus the log10 of a concentration measured in mol/L.

Incoming: Determine from records and report pKd for "CCCCNc1ncc(C(=O)NC2CCN(CCC[18F])CC2)c(N[C@H]2CC[C@H](O)CC2)n1"
Outgoing: 7.90
